Measured values drawn from patent US5213797A for this set.

# Tested on: Kibdelosporangium philippinensis (cultures A80407 and A80407.4)
# Procedure summary: Resistance to antibiotics of the producing cultures, antibiotic sensitivity discs on seeded ISP No. 2 agar
# Condition set: 30 μg; both cultures
Observation type: Resistance to antibiotics

# count of solved cases: 5
Compound	Observation type	Reported
NC[C@@H]1O[C@H](O[C@H]2[C@@H](O)[C@H](O[C@@H]3[C@@H](O)[C@H](N)C[C@H](N)[C@H]3O[C@H]3O[C@H](CN)[C@@H](O)[C@H](O)[C@H]3N)O[C@@H]2CO)[C@H](N)[C@@H](O)[C@@H]1O [neomycin]	Resistance to antibiotics	sensitive
O=C(N[C@H](CO)[C@H](O)c1ccc([N+](=O)[O-])cc1)C(Cl)Cl [chloramphenicol]	Resistance to antibiotics	sensitive
CCn1cc(C(=O)O)c(=O)c2ccc(C)nc21 [nalidixic acid]	Resistance to antibiotics	resistant
CC(=O)OCC1=C(C(=O)O)N2C(=O)[C@@H](NC(=O)Cc3cccs3)[C@H]2SC1 [cephalothin]	Resistance to antibiotics	resistant
CN[C@H](CC(C)C)C(=O)N[C@H]1C(=O)N[C@@H](CC(N)=O)C(=O)N[C@H]2C(=O)N[C@H]3C(=O)N[C@H](C(=O)N[C@H](C(=O)O)c4cc(O)cc(O)c4-c4cc3ccc4O)[C@H](O)c3ccc(c(Cl)c3)Oc3cc2cc(c3O[C@@H]2O[C@H](CO)[C@@H](O)[C@H](O)[C@H]2O[C@H]2C[C@](C)(N)[C@H](O)[C@H](C)O2)Oc2ccc(cc2Cl)[C@H]1O [vancomycin]	Resistance to antibiotics	resistant

Could you now consider this next compound?
Given item CO[C@@H]1[C@@H](OC(N)=O)[C@@H](O)[C@H](Oc2ccc3c(O)c(NC(=O)c4ccc(O)c(CC=C(C)C)c4)c(=O)oc3c2C)OC1(C)C [novobiocin] , the value recorded as its Resistance to antibiotics is sensitive
